# target.system: T1, 4H3354-bN
# T1 chain: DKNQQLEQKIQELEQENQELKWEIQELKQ
# assay.comment: two-hybrid library CCNG1;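 further: natural log of median RNA to DNA barcode read ratio; higher means stronger binding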
Reported interaction score values for a set of binders
In your answer, state the number alone without any accompanying words.

Use the examples below as a reference point.
>>> reported_result("DENQQLKQKIQELEQKNQELEWKIQELEQ [4H1845-bN]")
-0.397
>>> reported_result("DKIQQLEQKNQELEQEIQELKWEIQELKQ [4H2442-bN]")
-0.568
>>> reported_result("DKIQQLKQENQELEQKIQELKWEIQELEQ [4H2729-bN]")
-0.621
>>> reported_result("DENQQLKQKIQELEQKIQELEWENQELKQ [4H1828-bN]")
-1.74
>>> reported_result("DENQQLEQENQELKQKIQELKWEIQELEQ [4H1257-bN]")
-1.08

(Q) Query: interaction score; subject: DKNQQLEQKIQELEQENQELKWEIQELKQ [4H3354-bN]
(A) 1.43

(Q) How about this binder: DKIQQLKQEIQELEQEIQELKWKNQELKQ [4H2576-bN]
(A) -1.26
